# experiment-summary: qHTS to identify inhibitors of the type 1 interferon - major histocompatibility complex class I in skeletal muscle: Secondary screen by immunofluorescence; also: nearly all actives have a fitted effect of over 70% in size
# conditions-used: C25cl48 myoblasts, IFN-b induced HLA-ABC immunofluorescence, 24 h; series mostly up to 49.8 µM
Results filed as inconclusive are left out. The source made the active and inactive calls. Calls follow the shape of the dose curve; as a rule, active = well fitted inhibition curve with a large enough effect; inconclusive = small, poorly fitted or top-dose-only effect; inactive = no such curve, though single readings can be large or run the other way.
// classify into Y = active, N = inactive

Here are 7 compounds together with their reported answers.
• C[C@@]12O[C@@H](C[C@]1(O)CO)n1c3ccccc3c3c4c(c5c6ccccc6n2c5c31)CNC4=O = Y
• CN1CC[C@H](c2c(O)cc(O)c3c(=O)cc(-c4ccccc4Cl)oc23)[C@H](O)C1 = Y
• CN(Cc1ccc(/C=C/C(=O)NO)cc1)CC12CC3CC(CC(C3)C1)C2 = Y
• COc1cccc2c1C(=O)c1c(O)c3c(c(O)c1C2=O)C[C@@](O)(C(=O)CO)C[C@@H]3O[C@H]1C[C@H](N)[C@H](O)[C@H](C)O1 = Y
• O=C1Nc2ccccc2C1(c1ccc(O)cc1)c1ccc(O)cc1 = N
• CC[C@]1(O)C[C@H]2CN(CCc3c([nH]c4ccccc34)[C@@](C(=O)OC)(c3cc4c(cc3OC)N(C=O)[C@H]3[C@@](O)(C(=O)OC)[C@H](OC(C)=O)[C@]5(CC)C=CCN6CC[C@]43[C@@H]65)C2)C1 = N
• Cc1oncc1C(=O)Nc1ccc(C(F)(F)F)cc1 = N

query: What did this assay record as the result for CC1(COc2ccc3c(c2)ncn3-c2ccc3cccc(N4CCC(N)CC4)c3n2)COC1 ?
result: Y
